Test system: RAW-Dual
method: NF-kB SEAP reporter activity, fold change vs agonist alone; cytotoxicity flag (confluency mask): not cytotoxic; higher = enhanced NF-kB activity
condition.details: agonist: ODN 1826 (TLR9) 0.5 ug/mL
In all, about 2,900 compounds were measured (“NF-kB SEAP reporter activity, fold change vs agonist alone”: median about 0.99, highest 2% from about 2.6 on). What follows is part of a selection rich in the highest values, with near analogues and random picks from the rest.
The threshold is inclusive: NF-kB SEAP reporter activity of exactly 1 counts as yes; values below receive no.

Enquiry: Assess whether reported NF-kB SEAP reporter activity for CCCC(NC1CCc2cc(F)cc(F)c2C1)C(=O)Nc1cn(C(C)(C)CNCC(C)(C)C)cn1 (stereo unspecified) (library stock concentration (final ~1000-fold dilution): 10 mM) sits at 1 or higher.
Return: no

Enquiry: Next molecule up: Cc1nc(-c2cn3c(n2)-c2ccc(-c4cnn(C(C)(C)C(N)=O)c4)cc2OCC3)n(C(C)C)n1 (library stock concentration (final ~1000-fold dilution): 10 mM)
Return: yes

Enquiry: Check Cc1ccc(CNc2ncnc3ccc(-c4ccc(CO)o4)cc23)o1 (library stock concentration (final ~1000-fold dilution): 10 mM) too.
Return: yes

Enquiry: Follow-up entry: CC(Oc1ccc2c(c1)OCCn1cc(-c3ncnn3C(C)C)nc1-2)C(N)=O (stereo unspecified) (library stock concentration (final ~1000-fold dilution): 10 mM)
Return: yes

Enquiry: Then this molecule: Cc1cc(C)nc(NC(=S)N2CCN(Cc3ccc(C(F)(F)F)cc3)CC2)c1 (library stock concentration (final ~1000-fold dilution): 10 mM)
Return: no
